Target: SIRT1 (Homo sapiens)
Sequence (Q96EB6 2-747): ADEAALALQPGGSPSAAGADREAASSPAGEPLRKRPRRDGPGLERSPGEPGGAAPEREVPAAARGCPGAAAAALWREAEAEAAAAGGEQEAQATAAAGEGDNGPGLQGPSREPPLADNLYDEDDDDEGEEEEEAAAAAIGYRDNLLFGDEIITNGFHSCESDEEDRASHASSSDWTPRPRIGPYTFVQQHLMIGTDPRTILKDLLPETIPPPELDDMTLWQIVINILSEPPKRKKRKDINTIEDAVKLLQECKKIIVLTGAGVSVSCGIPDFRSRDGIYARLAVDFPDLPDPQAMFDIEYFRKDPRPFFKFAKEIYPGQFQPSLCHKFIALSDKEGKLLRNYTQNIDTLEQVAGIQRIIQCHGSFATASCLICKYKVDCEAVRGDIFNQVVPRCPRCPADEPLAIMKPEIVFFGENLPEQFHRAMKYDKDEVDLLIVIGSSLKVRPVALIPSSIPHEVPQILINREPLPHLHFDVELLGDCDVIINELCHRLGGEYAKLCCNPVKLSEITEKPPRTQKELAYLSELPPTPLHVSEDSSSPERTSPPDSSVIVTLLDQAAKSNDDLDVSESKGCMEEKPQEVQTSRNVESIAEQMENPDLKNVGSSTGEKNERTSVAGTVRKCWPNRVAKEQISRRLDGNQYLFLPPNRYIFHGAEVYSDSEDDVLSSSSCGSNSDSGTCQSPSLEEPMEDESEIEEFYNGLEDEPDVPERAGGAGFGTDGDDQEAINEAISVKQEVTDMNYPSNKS
pIC50: −log10 of the molar value.
ENDPOINT: pIC50

| SMILES_DATA | ENDPOINT | MEAS_VALUE |
| --- | --- | --- |
| CC(C)(C)c1cc(C=C2C(=O)NC(=S)NC2=O)cc(C(C)(C)C)c1O | pIC50 | 3.57 |
